The reported numbers originate from patent US20260028391A1.

biological target: MPV fusion glycoprotein with the D280N mutation (MPV-F N280) (metapneumovirus); experiment: SPR; F protein loaded on streptavidin sensors, mAb in solution
ASSAY ENDPOINT: Kd

INSERT INTO assay_data (binder, recorded_value) VALUES
  ('MPK155 (antibody, V domains shown) VH: EVQLVESGGGLVKPGGSLRLSCEASGISLSGYYMIWIRQAPGKGLEWISSISSSSNYIDYADSVRGRFTISRHNGQNTLYLQMNSLRVEDTAVYFCATEQTPSPGPFDLWGQGILVTVSS VL: QSVLTQPPSVSGAPGQRVTIFCTGTSSNLGAGYDVHWYQQFPGTSPKLLIYRYTNRPSGVPDRFSGSKSGSSASLAIAGLQAEDEADYYCQSYDRSVSGWVFGGGTKLTVL', '2.6 nM'),
  ('MPK136 (antibody, V domains shown) VH: EVQLVESGGGLVKPGGSLRLSCEASGFSLSGYYMIWIRQAPGKGLEWISSISGSGNYINYADSVKGRFTVSRDNGHNTLYLQMNSLRVEDTAVYYCATEQTPSPGPFDHWGQGTLVTVSS VL: QVQLVQPPSVSGAPGQRVSISCTGTSSNIGTGYDVHWYQQFPGTSPKLLIYRNTNRPSGVPDRFSGSKSGSSASLAIAGLQAEDEADYYCQSYDRSVSGWVFGGGTKLTVL', '4.6 nM');
